# Test system: Rhizoctonia solani
# PROTOCOL SUMMARY: Antifungal activity against Rhizoctonia solani infected compound-pre-treated rice seedlings at 300 ppm incubated for 2 days prior to infection measured after 4 days relative to diclomezine
# Assay type: functional
PROPERTY NAME: Activity_index
Give your answer as a number; write no unit.

A selection of reference data follows.
# MOLECULE, Activity_index
data = [
    ("C[Si](C)(C)CC(C#N)(Cn1cncn1)c1ccccc1Cl (configuration not stated)", 2),
    ("C[Si](C)(CC(C#N)(Cn1cncn1)c1ccccc1)c1ccccc1 (configuration not stated)", 0),
    ("C[Si](C)(C)CC(C#N)(Cn1cncn1)c1ccc(Cl)cc1Cl (configuration not stated)", 2),
    ("C[Si](C)(C)CC(C#N)(Cn1cncn1)c1ccccc1 (configuration not stated)", 2),
    ("C[Si](C)(CC(C#N)(Cn1cncn1)c1ccc(Cl)cc1)c1ccccc1 (configuration not stated)", 0),
]

Enquiry: For the molecule C[Si](C)(C)CC(C#N)(Cn1cncn1)c1ccc(Cl)cc1 (configuration not stated) , what Activity_index is on record?
Return: 2

Enquiry: // same read-out, input: C[Si](C)(CC(C#N)(Cn1cncn1)c1cccc(Oc2ccccc2)c1)c1ccccc1 (configuration not stated)
Return: 0

Enquiry: // same read-out, input: Cc1ccc(C(C#N)(Cn2cncn2)C[Si](C)(C)C)cc1 (configuration not stated)
Return: 0

Enquiry: // same read-out, input: C[Si](C)(C)CC(C#N)(Cn1cncn1)c1ccc(F)cc1 (configuration not stated)
Return: 2

Enquiry: // same read-out, input: C[Si](C)(C)CC(C#N)(Cn1cncn1)c1cccc(Cl)c1 (configuration not stated)
Return: 0

Enquiry: // same read-out, input: C[Si](C)(C)CC(C#N)(Cn1cncn1)c1ccc(Cl)c(Cl)c1 (configuration not stated)
Return: 0

Enquiry: // same read-out, input: COc1ccc(C(C#N)(Cn2cncn2)C[Si](C)(C)C)cc1 (configuration not stated)
Return: 2
